Experiment: Tolerability in Balb/c mice, body and organ weights (Example 11)
Type: in vivo
Conditions: 50 mg/kg subcutaneously twice a week for four weeks, end of study
Strand notation (5' to 3'): a small letter for the sugar, then the base; units joined by * are phosphorothioate-linked, units joined directly phosphodiester-linked; [ ] holds rarer units or linkages, { } end groups; capitals alone tell only the bases. k = constrained ethyl (cEt); [5mC] = 5-methylcytosine; d = 2'-deoxy (DNA)

substance: 716424 (antisense kG*k[5mC]*kA*dA*dT*dG*dG*dA*d[5mC]*dA*dA*dG*dG*kA*kA*kG) [compound 716424]
Spleen weight / g: 0.15
--
substance: 715487 (kA*kT*kT*dA*d[5mC]*dT*dT*d[5mC]*dA*dT*dA*dG*d[5mC]*kT*kT*kA) [compound 715487]
Spleen weight / g: 0.15
--
substance: 716513 (antisense kA*kA*kT*d[5mC]*dT*dT*dA*dA*dT*d[5mC]*dT*dG*dT*kG*kG*k[5mC]) [compound 716513]
Spleen weight / g: 0.18
--
substance: 715483 (k[5mC]*kT*k[5mC]*dT*dT*dT*dG*dG*dA*dA*dA*d[5mC]*d[5mC]*kA*kT*kT) [compound 715483]
Spleen weight / g: 0.12
--
substance: 716455 (antisense kG*kT*kT*dA*dT*dG*dT*dT*dT*dG*dG*dG*dT*kG*kT*kG) [compound 716455]
Spleen weight / g: 0.14
--
substance: 716502 (antisense k[5mC]*kA*k[5mC]*dA*dG*dT*dG*dA*dT*dT*dG*d[5mC]*dA*kT*kT*kT) [compound 716502]
Spleen weight / g: 0.10
--
substance: 716480 (antisense kG*k[5mC]*kA*dA*dG*dT*d[5mC]*dT*dT*dG*dT*dA*dA*kG*kT*kA) [compound 716480]
Spleen weight / g: 0.10
--
substance: 715473 (kT*k[5mC]*kT*dT*dT*dA*dT*d[5mC]*dT*dA*dG*d[5mC]*dT*kT*kG*kG; antisense) [compound 715473]
Spleen weight / g: 0.09

All figures here come from patent US11214803B2.
